Biological target: Androgen receptor (Homo sapiens)
Sequence (P10275 whole entry): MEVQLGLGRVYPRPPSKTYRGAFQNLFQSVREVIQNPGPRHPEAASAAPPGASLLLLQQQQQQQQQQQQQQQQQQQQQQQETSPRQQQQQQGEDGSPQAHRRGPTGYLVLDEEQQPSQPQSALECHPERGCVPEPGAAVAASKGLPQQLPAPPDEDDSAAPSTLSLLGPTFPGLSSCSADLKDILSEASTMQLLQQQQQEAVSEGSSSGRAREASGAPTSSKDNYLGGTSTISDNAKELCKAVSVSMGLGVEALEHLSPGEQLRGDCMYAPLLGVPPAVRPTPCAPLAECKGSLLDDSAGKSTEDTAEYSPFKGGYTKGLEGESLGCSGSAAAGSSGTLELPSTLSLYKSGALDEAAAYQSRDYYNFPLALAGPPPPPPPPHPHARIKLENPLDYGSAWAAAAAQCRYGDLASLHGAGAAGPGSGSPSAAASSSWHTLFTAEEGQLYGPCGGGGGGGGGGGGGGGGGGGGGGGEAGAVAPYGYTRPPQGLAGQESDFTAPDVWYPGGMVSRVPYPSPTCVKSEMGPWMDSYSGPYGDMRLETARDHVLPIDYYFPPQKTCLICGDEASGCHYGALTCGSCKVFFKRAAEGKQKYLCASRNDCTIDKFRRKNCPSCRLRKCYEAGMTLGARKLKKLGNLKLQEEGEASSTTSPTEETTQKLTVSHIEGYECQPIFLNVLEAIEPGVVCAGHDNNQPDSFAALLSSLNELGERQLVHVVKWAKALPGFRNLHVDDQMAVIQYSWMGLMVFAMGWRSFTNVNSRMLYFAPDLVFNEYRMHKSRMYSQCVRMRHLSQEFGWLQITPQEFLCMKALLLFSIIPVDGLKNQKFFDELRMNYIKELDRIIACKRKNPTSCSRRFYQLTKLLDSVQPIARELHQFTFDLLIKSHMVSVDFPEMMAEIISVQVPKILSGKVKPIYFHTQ
Test: Binding affinity to human recombinant androgen receptor
measure name: IC50

1. C[C@H]1Cc2c([nH]c3cc(Cl)c(F)cc23)[C@@]2(N1)C(=O)Nc1ccc(Cl)cc12 [CIPARGAMIN] :: > 30 µM

* * *

Molecular target: Adenosine receptor A2a (Homo sapiens, UniProt P29274)
Sequence (P29274 whole entry): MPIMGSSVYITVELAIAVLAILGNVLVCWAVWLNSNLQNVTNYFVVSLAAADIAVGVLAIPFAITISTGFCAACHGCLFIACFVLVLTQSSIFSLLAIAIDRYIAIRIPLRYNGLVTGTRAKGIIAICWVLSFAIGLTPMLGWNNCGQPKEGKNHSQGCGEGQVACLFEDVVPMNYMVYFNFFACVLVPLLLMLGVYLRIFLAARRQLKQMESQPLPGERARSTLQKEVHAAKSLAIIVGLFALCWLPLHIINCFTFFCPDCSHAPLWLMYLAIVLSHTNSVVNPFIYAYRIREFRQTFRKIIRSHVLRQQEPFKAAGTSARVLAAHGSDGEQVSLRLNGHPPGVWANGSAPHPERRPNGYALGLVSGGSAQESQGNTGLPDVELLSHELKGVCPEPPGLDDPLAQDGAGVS
Assay: Binding affinity to human recombinant adenosine 2a receptor
measure name: IC50

1. C[C@H]1Cc2c([nH]c3cc(Cl)c(F)cc23)[C@@]2(N1)C(=O)Nc1ccc(Cl)cc12 :: > 30 µM

* * *

Molecular target: Growth hormone secretagogue receptor type 1 (Homo sapiens)
Sequence (Q92847 whole entry): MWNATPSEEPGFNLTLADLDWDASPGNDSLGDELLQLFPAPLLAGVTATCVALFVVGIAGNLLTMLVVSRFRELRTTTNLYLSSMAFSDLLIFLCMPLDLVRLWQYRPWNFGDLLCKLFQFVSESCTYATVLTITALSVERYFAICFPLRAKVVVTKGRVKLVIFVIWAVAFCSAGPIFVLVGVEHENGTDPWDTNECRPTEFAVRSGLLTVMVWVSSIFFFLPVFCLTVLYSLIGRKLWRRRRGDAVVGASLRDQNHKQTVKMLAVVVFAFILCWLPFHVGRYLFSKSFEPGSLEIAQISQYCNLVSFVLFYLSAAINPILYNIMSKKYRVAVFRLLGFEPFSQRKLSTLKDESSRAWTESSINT
Assay: Binding affinity to human recombinant Ghrelin receptor
measure name: IC50

1. C[C@H]1Cc2c([nH]c3cc(Cl)c(F)cc23)[C@@]2(N1)C(=O)Nc1ccc(Cl)cc12 [CIPARGAMIN] :: > 30 µM

* * *

Tested on: Plasmodium falciparum
Test: Antimalarial activity against NITD609-resistant Plasmodium falciparum Dd2 Clone1 bearing P-type ATPase4 I398F and P990R mutations after 72 hrs by SYBR green based fluorescence assay
Type: functional, organism-based
Settings: Dd2, 72 h
Attribute: IC50
measure name: IC50 (nM)

1) C/C=C(/C)C(=O)O[C@H]1C(C)=C2[C@H]([C@@H]1OC(=O)CCCCCCC)[C@@](C)(OC(C)=O)C[C@H](OC(=O)CCC)[C@@]1(O)[C@H]2OC(=O)[C@@]1(C)O :: 813
2) C[C@@H]1CC[C@H]2[C@@H](C)C(=O)O[C@@H]3O[C@@]4(C)CC[C@@H]1[C@]32OO4 :: 13
3) C[C@@H]1C[C@@H]([C@H](O)CC2CC(=O)NC(=O)C2)C(=O)[C@@H](C)C1 [CYCLOHEXIMIDE] :: 287
4) C[C@H]1Cc2c([nH]c3cc(Cl)c(F)cc23)[C@@]2(N1)C(=O)Nc1ccc(Cl)cc12 :: 10.9
5) C/C=C/[C@H]1O[C@@](O)([C@@H](C)[C@H](O)[C@H](C)[C@H]2OC(=O)/C(OC)=C/C(C)=C/[C@@H](C)[C@@H](O)[C@@H](CC)[C@@H](O)[C@H](C)C/C(C)=C/C=C/[C@@H]2OC)C[C@@H](O[C@H]2C[C@@H](O)[C@H](OC(N)=O)[C@@H](C)O2)[C@@H]1C :: 7

* * *

Molecular target: Type-1 angiotensin II receptor (Homo sapiens)
Sequence (P30556 whole entry): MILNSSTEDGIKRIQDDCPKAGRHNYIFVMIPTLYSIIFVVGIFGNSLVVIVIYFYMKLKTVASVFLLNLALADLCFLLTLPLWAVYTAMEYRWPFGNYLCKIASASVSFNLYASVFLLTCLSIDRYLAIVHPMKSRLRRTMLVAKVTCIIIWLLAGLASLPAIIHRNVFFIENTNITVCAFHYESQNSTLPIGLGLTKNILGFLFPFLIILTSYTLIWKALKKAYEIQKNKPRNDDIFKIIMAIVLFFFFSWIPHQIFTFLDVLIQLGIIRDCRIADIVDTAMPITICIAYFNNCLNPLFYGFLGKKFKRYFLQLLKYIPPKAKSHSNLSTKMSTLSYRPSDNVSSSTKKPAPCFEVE
Experiment: Binding affinity to human recombinant angiotensin2 AT1 receptor
measure name: IC50

1. C[C@H]1Cc2c([nH]c3cc(Cl)c(F)cc23)[C@@]2(N1)C(=O)Nc1ccc(Cl)cc12 [CIPARGAMIN] :: > 30 µM

* * *

Assay: Binding affinity to human recombinant adenosine transporter
measure name: IC50

1. C[C@H]1Cc2c([nH]c3cc(Cl)c(F)cc23)[C@@]2(N1)C(=O)Nc1ccc(Cl)cc12 :: > 30 µM

* * *

Experiment: AUC (0 to infinity) in CD1 mouse at 5.4 mg/kg, iv
Format: ADME, organism-based
Set-up: time infinity, dose 5.4 mg/kg, route intravenous
Details: plasma
measure name: AUC(0-inf) (µM·h)

1) C[C@H]1Cc2c([nH]c3cc(Cl)c(F)cc23)[C@@]2(N1)C(=O)Nc1ccc(Cl)cc12 :: 23.9

* * *

Experiment: Intrinsic clearance in dog liver microsome
Type: ADME, Canis lupus familiaris
Conditions: liver microsomes
measure name: CLint scaled

1) C[C@H]1Cc2c([nH]c3cc(Cl)c(F)cc23)[C@@]2(N1)C(=O)Nc1ccc(Cl)cc12 :: 22.1 mL/min/kg
